Test system: CEM cells HIV-1 protection, formazan growth assay
PROTOCOL: NCI AIDS Antiviral Assay;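 active = compounds giving half or more protection of infected cells from virus-caused growth loss, again on retest; inactive = the rest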
Give one outcome, nothing more. List: 1 for active, -1 for inactive

Some entries whose results are on file:
1) COc1cc(/C=C2\Sc3scc(-c4cccc([N+](=O)[O-])c4)[n+]3C2=O)cc(OC)c1OC ... -1
2) CN(C)c1nc(N(C)C)nc(N(C)CN(C)c2nc(N(C)C)nc(N(C)C)n2)n1 ... -1
3) C=C(C)[C@@H]1CC[C@]2(C)CC[C@@]3(C)[C@]4(C)CC[C@H]5C(C)(C)[C@@H](OC(=O)CCC(=O)O)CC[C@]5(C)[C@H]4CC[C@]3(C)[C@@H]12 ... 1
4) COc1cc(OC)c2c(O)c3c(cc2c1)CC(C)(C)CC3=O ... -1
5) N#CC(C#N)[C@@H]1CCC=C(Sc2ccccc2)[C@H]1Sc1ccccc1 ... -1
6) CC1(C(=O)O)CCC2(C)CCC3(C)C(=CC(=O)C4C5(C)CCC(OC6OC(C(=O)O)C(O)C(O)C6OC6OC(C(=O)O)C(O)C(O)C6O)C(C)(C)C5CCC43C)C2C1 (stereo not drawn) ... -1
7) COc1cc(/C=C2\C(=O)N(c3cc(Cl)ccc3Cl)C(c3ccccc3)S2(=O)=O)cc(OC)c1OC (stereo not drawn) ... -1

Consider the record given below.
For O=C(CC1Sc2ccccc2NC1=O)Nc1ccc([N+](=O)[O-])cc1[N+](=O)[O-] (stereo not drawn) , which call appears in the assay record?
-1

---

Test system: CEM cells HIV-1 protection, formazan growth assay
PROTOCOL: NCI AIDS Antiviral Assay
CONDITION_INFO: measured here: growth of uninfected CEM cells
pIC50: −log10 of the molar value.
Classification field: yes (1) = pIC50 at or over 4; no (0) = pIC50 under 4.

Some entries whose results are on file:
1. Oc1ccccc1-n1nc2ccc3nonc3c2n1 ... no (0)
2. CCOC(=O)/C(C)=C(/O)C(=O)OCC ... no (0)
3. c1ccc2c(c1)nnn1c3cnccc3nc21 ... yes (1)

Form field: pIC50 at least 4? Entry: "COC(=O)c1ccc2c(O)c(O)ccc2c1"
yes (1)

Form field: pIC50 at least 4? Entry: "O=C(C[n+]1ccccc1)N/N=C(/CCC(=O)N(Cc1ccccc1)Cc1ccccc1)CC(=O)c1ccccc1"
no (0)

Form field: pIC50 at least 4? Entry: "COc1ccccc1NC(=O)C(/C=N/C(=S)NNC(C)=O)=C(/C)O"
no (0)

Form field: pIC50 at least 4? Entry: "Cn1c2ccccc2c2cc(-c3ccccc3)c3c(c21)C(=O)C=CC3=O"
yes (1)

Form field: pIC50 at least 4? Entry: "COc1ccc(-c2c(C#N)c(S)n(NS(=O)(=O)c3ccccc3)c(=O)c2C#N)cc1"
yes (1)

---

Tested on: CEM cells HIV-1 protection, formazan growth assay
PROTOCOL: NCI AIDS Antiviral Assay
pEC50: −log10 of the molar value.
Can you tell me pEC50 for the items I'm about to list?

# example entries with known answers
1) O=Cc1ccc2c(c1)CC1(C2)Cc2ccc3c(c2C1)CCC3 (stereo unspecified) ... < 3.70
2) COC(=O)c1ccc(C)cc1/C=C1\Cc2ccc(C)cc2C1=O ... < 3.70
3) CSc1nc[nH]c1C(N)=S ... < 3.70
4) Cc1ccc(S(=O)(=O)NC(=O)C2S(=O)(=O)OCCOS2(=O)=O)cc1 ... < 2.41
5) COC(=O)C1=C(C)N2CCOC2CC1c1ccccc1 (stereo unspecified) ... < 3.70

Batch request: pEC50 per item, same order as input.
1. CCN(CC)C1=Nc2ccccc2N(c2ccccc2)C(=S)C1
2. CCC[CH2][Sn]1([CH2]CCC)[O]CC([CH2][Sn]([c]2ccccc2)([c]2ccccc2)[c]2ccccc2)[O]1 (stereo unspecified)
3. CCOC(=O)c1c(N=P(c2ccccc2)(c2ccccc2)c2ccccc2)nnc(-c2ccccc2)c1-c1ccccc1
4. O=C(O)c1c(Br)c(Br)c(Br)c(Br)c1C1c2ccc(O)cc2Oc2cc(O)ccc21

1: < 3.70; 2: < 5.40; 3: < 4.00; 4: 5.53

Batch request: pEC50 per item, same order as input.
1. Nc1ccc(S(=O)(=O)Nc2nc3ccccc3nc2Nc2ccc(S(N)(=O)=O)cc2)cc1
2. CC(C)(C)C1COP(=S)(C(C)(C)C)OC1 (stereo unspecified)
3. CC(=O)OCc1cc(OC(C)=O)cnc1COC(C)=O

["< 3.70", "< 4.84", "< 3.33"]

Batch request: pEC50 per item, same order as input.
1. Cc1cc(C)c2nc3c(c(C(O)C4CCCCN4)c2c1)CC/C3=C\c1ccc(Cl)cc1 (stereo unspecified)
2. COC(=O)[C@]12CSC[C@H]1C[C@H](c1cccc3ccccc13)N2

< 4.64
< 3.70

Batch request: pEC50 per item, same order as input.
1. CN1c2ccccc2C2=C(C(=O)CCS2)S1(=O)=O
2. N#Cc1c2c(c(N=[N+]=[N-])n3c1nc1ccccc13)CCCC2

< 4.45
< 5.33

---

System: CEM cells HIV-1 protection, formazan growth assay
PROTOCOL: NCI AIDS Antiviral Assay
CONDITION_INFO: measured here: growth of uninfected CEM cells
pIC50: −log10 of the molar value.
Classification field: class 1 = pIC50 at or over 4; class 0 = pIC50 under 4.

1. NC(=O)C(=O)c1ncn(Cc2ccccc2)c1N ... class 0
2. CCCC(=O)NC(Nc1cc(C)ccn1)(C(=O)OCC)C(F)(F)F (stereo not drawn) ... class 0

Form field: pIC50 at least 4? Entry: "CN1CCCc2cc(/C=C\c3ccnc4ccccc34)ccc21"
class 1

Form field: pIC50 at least 4? Entry: COc1cccc(C2c3cc4c(cc3OC(C)(O)C2C)OCO4)c1O (stereo not drawn)
class 1

Form field: pIC50 at least 4? Entry: CC1=NNC(=O)C1C1CC(c2c[nH]c3ccccc23)=NNC1=NCc1ccccc1 (stereo not drawn)
class 1

Form field: pIC50 at least 4? Entry: "CC1(C)OCN(c2ccc(Cl)cc2)Cn2c1nc1ccccc12"
class 1

Form field: pIC50 at least 4? Entry: C=CCOC(=O)C1C2OC3(C(C(=O)OC)=C2C(=O)OC)c2ccccc2CCC13 (stereo not drawn)
class 1

Form field: pIC50 at least 4? Entry: "S=c1n(-c2ccc(Cl)cc2)c2nc3ccccc3nc(/c2=N\Nc2cc(Cl)ccc2Cl)n1-c1ccccn1"
class 1

Form field: pIC50 at least 4? Entry: CCCCCCCC(=O)OC(CBr)COC(=O)C(C)(C)C (stereo not drawn)
class 0

Form field: pIC50 at least 4? Entry: "C[C@H](CS)C(=O)N1c2ccccc2C[C@H]1C(=O)O"
class 0

Form field: pIC50 at least 4? Entry: "c1ccc(COc2nc3ccc(C45CC6CC(CC(C6)C4)C5)cc3[nH]2)cc1"
class 1

Form field: pIC50 at least 4? Entry: "COc1ccc([C@H]2Oc3cc(OCc4ccccc4)c(O)cc3[C@@H]2C)c(OC)c1"
class 1

Form field: pIC50 at least 4? Entry: CCOc1cn(C2OC(CO)C(O)C2O)c(=O)[nH]c1=O (stereo not drawn)
class 0

Form field: pIC50 at least 4? Entry: COC1(OC)CCCCC2c3cccc(OC(C)=O)c3C21OC(C)=O (stereo not drawn)
class 0

Form field: pIC50 at least 4? Entry: COc1ccc2c(c1OC)CC1COCC21 (stereo not drawn)
class 0

Form field: pIC50 at least 4? Entry: "O=S(=O)(c1ccc(Cl)cc1)c1ccccc1C1=NCCN1"
class 0

Form field: pIC50 at least 4? Entry: "O=[N+]([O-])c1ccc(SSc2ccc([N+](=O)[O-])cc2)cc1"
class 1

Form field: pIC50 at least 4? Entry: "Cc1cc(NS(=O)(=O)c2ccc(Nc3c4ccccc4nc4ccccc34)cc2)no1"
class 1

Form field: pIC50 at least 4? Entry: "CSc1c(C(=O)Nc2ccc(Cl)cc2)c(N)nn1-c1ccccc1"
class 0

---

Test system: CEM cells HIV-1 protection, formazan growth assay
PROTOCOL: NCI AIDS Antiviral Assay
CONDITION_INFO: measured here: growth of uninfected CEM cells
ENDPOINT_LABEL: IC50 (µM)
Answers are plain numbers, in µM.

1. COC(COC(N)=O)C1=C(N2CC2)C(=O)C(C)=C(N2CC2)C1=O (configuration not stated) ... 0.0166
2. OCC1OC(NC(=S)NCCC(F)(F)C(F)(F)C(F)(F)C(F)(F)C(F)(F)C(F)(F)F)C(O)C(O)C1O (configuration not stated) ... 120

Batch request: IC50 per item, same order as input.
1. CC1(CCc2ccccc2)CC1(Br)Br (configuration not stated)
2. COc1ccc(N2C(=O)C3CC(c4ccc(Br)cc4)c4c([nH]c5ccccc45)C3C2=O)cc1 (configuration not stated)
3. COc1ccccc1C=NC12CC3CC(CC(C3)C1)C2
4. CCCC12C(C(=O)OC)C(=O)C(C(=O)OC)C1(C)C(C(=O)OC)C(=O)C2C(=O)OC (configuration not stated)
5. Cc1nc2c(-c3ccccc3)[nH]c(C)c2c(=O)o1
6. CCCCCCOc1ccc(C(=O)NOC)cc1
7. Oc1c(CN2CCOCC2)ccc2ccccc12

1. 95.5
2. 11
3. 110
4. 97.7
5. 69.2
6. 110
7. 191
